TESTED ON: C-X-C chemokine receptor type 6 (Homo sapiens)
PROCEDURE DETAILS: potency against CXCR6 with APJ panel – cell-based, beta-arrestin, DiscoveRx, uHTS hits, dose response (AID 624129)
CONDITION INFO: CXCR6 beta-arrestin (DiscoveRx) antagonist cell assay, CXCR6, dose range 1, mean IC50 across replicates
TEST READOUT: IC50 (µM)

COMPOUND	TEST READOUT	ENDPOINT VALUE
CCC(=O)OCOc1ccc(/C=C2/CCC(CN(C)C)C2=O)cc1 (stereo unspecified)	IC50	12.6
O=c1cc(CSc2ccc(Cl)cc2)nc(-c2ccccn2)[nH]1	IC50	3.68
COc1cc(/C=C/[N+](=O)[O-])ccc1OC(=O)c1cc2ccccc2oc1=O	IC50	11.6
Fc1ccc(NC(=S)NNc2ncc(C(F)(F)F)cc2Cl)c(F)c1	IC50	11.6
COC(=O)c1ccc(/C=C(\C#N)C(=O)NC(C)c2ccccc2)cc1 (stereo unspecified)	IC50	14.1
S=C(N/N=C/c1ccccc1)N1CCOCC1	IC50	6.19
CN(c1ccccc1)c1ccc(/C=C/[N+](=O)[O-])cc1	IC50	11.4
COC(CNC(=O)c1cc(C(=O)c2c(-c3c(Cl)cccc3Cl)noc2C)c[nH]1)OC	IC50	15.7
C=C1C(=O)OC2C1CCC(C)=C1C(=O)C3OC3(C)C12 (stereo unspecified)	IC50	10.3
Oc1cccc2ccc(/C=C/c3cccs3)nc12	IC50	4.43
Cc1ccc(OCC(=O)NNC(=S)NC(=O)C2CC2)c(C)c1	IC50	14.2

* * *

TESTED ON: C-X-C chemokine receptor type 6 (Homo sapiens)
PROCEDURE DETAILS: potency against CXCR6 with APJ panel – cell-based, beta-arrestin, DiscoveRx, uHTS hits, dose response (AID 624129)
CONDITION INFO: CXCR6 beta-arrestin (DiscoveRx) antagonist cell assay, CXCR6, dose range 1, mean IC50 across replicates

COMPOUND	QUALIFIER SYMBOL	IC50 (µM)
O=C(NCc1ccc2c(c1)OCO2)c1nc(S(=O)(=O)Cc2ccccc2F)ncc1Cl	=	16.3
CCOC(=O)c1c(-c2ccc(C)o2)csc1NC(=S)NC(=O)N(C)C	=	13.6
Cc1ccc(P(=O)(c2ccc(C)cc2)[C@@H](NC(c2ccccc2)c2ccccc2)c2ccccc2)cc1	=	19.6
COc1ccc(C(=O)N/N=C(\C)c2ccccn2)cc1OC	=	1.99
CCOC(=O)CS(=O)(=O)c1nc(-c2ccccc2)cc(C(F)(F)F)n1	=	18.9
O=[N+]([O-])c1ccc(S(=O)(=O)c2ccccc2)nc1	>	80
Cc1cccc(NC(=S)N/N=C/c2ccc([N+](=O)[O-])s2)c1	=	12.4
C/C(=N\NC(=O)COc1ccccc1-c1ccccc1)c1ccccn1	=	2.31
O=[N+]([O-])c1cc2no[n+]([O-])c2cc1N1CCCCC1	=	12
O=C(N/N=C/c1ccc([N+](=O)[O-])o1)c1sc2ccccc2c1Cl	=	19.5
O=[N+]([O-])c1ccc(N/N=C/c2sc(N3CCOCC3)nc2-c2ccccc2)c(S(=O)(=O)Nc2ccccc2Cl)c1	=	27.6
COC(=O)c1cc([N+](=O)[O-])c(-n2cncn2)c([N+](=O)[O-])c1	=	16.2
C/C(=N\NC(=O)c1ccc(F)cc1)c1ccccn1	=	1.14
COc1ccc(/C=C/c2ccc3cccc(O)c3n2)c(OC)c1OC	=	4.12
O=C(C=Cc1ccccn1)c1ccccc1O	=	22.4
C=C1C(=O)C23C(O)C1CCC2C12CCCC(C)(COC(C)=O)C1C(O)C3(O)OC2 (configuration not stated)	=	6.29
COC(=O)C1=C(C(=O)OC)SC2(S1)C(C(=O)OC)=C(C(=O)OC)Sc1c2ssc1=O	=	23.2
Cc1ccc(NC(=O)C2=C(c3ccccc3)S(=O)(=O)CCS2(=O)=O)cc1	=	16.9
COc1ccc(C(=O)/C=C/C(=O)N(CC(=O)NC2CCCCC2)Cc2ccccc2)c(O)c1	>	80
COc1ccc(Nc2ccc([N+](=O)[O-])c3nonc23)c(OC)c1	>	80
Cc1c(N=Nc2c(O)[nH]c(=S)[nH]c2=O)c(=O)n(-c2ccccc2)n1C	=	22.5
C/C(=N\NC(=O)C(c1ccccc1)c1ccccc1)c1ccccn1	=	4.66
Cc1ccc(C(=O)NNC(=S)NC(=O)c2ccccc2)cc1	=	20.1
C=CCn1c(=O)c2c(nc3n2CC(C)CN3c2cccc(OC)c2)n(C)c1=O (configuration not stated)	=	19.5
O=S(=O)(/C=C/C=C/S(=O)(=O)c1ccccc1)c1ccccc1	=	10.5
C/C(=N\NC(=O)C(C)Oc1ccc([N+](=O)[O-])cc1)c1ccccn1 (configuration not stated)	=	3.92
CCn1c(=O)c([N+](=O)[O-])c(Cl)c2ccccc21	=	7.64
Cn1cnc([N+](=O)[O-])c1S(=O)(=O)Oc1ccccc1	=	19.4
O=C1C=CC(=O)N1CCCCCCCCCCN1C(=O)C=CC1=O	=	16.5
COc1ccc(NC(=S)NNc2ccc([N+](=O)[O-])cc2S(=O)(=O)Nc2ccc(C)cc2C)cc1	=	35.1
CC(=O)OC1CCC2(C)C(CCC3C4CC=C(C(C)=O)C4(C)OC(=O)CC32)C1 (configuration not stated)	=	24.2
CC1(C)CC(=O)C2=C(C1)OC1=C(C(=O)CC(C)(C)C1)C2c1ccc(O)cc1O	=	9.86
CNC(=O)c1nnsc1S(=O)c1ccc(Cl)cc1 (configuration not stated)	=	13
COc1cccc(C(=O)NC(=S)N2CCN(c3ccc(C(F)(F)F)cc3[N+](=O)[O-])CC2)c1	=	13.5
CCCCC(=O)NC(=S)Nc1ccccc1C(=O)Nc1ccccc1	=	11.4
Cc1ccc(O)c(C(=O)CC(=O)c2ccc(Cl)cc2)c1	=	13.7
Cc1nc2c(-c3ccc(Cl)cc3)c(C)[nH]n2c(=O)c1Cc1ccccc1	>	80
Cc1ccc(S(=O)(=O)c2ccc([N+](=O)[O-])cn2)cc1	=	11.7
CC(=O)Nc1ccc(NCC(=O)c2ccccc2)cc1	=	23.7
O=[N+]([O-])/C=C/c1ccc2c(ccn2Cc2ccccc2)c1	=	11.3
CCOc1ccc(N(CC(=O)N/N=C/c2ccccn2)S(=O)(=O)c2ccc(Cl)cc2)cc1	=	27.1
Cc1ccc(NC(=O)c2ccc(Nc3c([N+](=O)[O-])cc([N+](=O)[O-])cc3[N+](=O)[O-])cc2)cc1	=	28.5
